# System: Escherichia coli
# protocol: Antibacterial activity against Escherichia coli MTCC 739 by serial dilution method
# Type: functional
# Design: scale not given here
Here the recorded -logMIC is given for each entry.
measuredProperty: -logMIC

# querySmiles, experimentalTarget, measuredProperty, reportedMeasurement
rows = [
    ("COc1ccc(C(=O)Nc2cccc(C)c2)cc1OC", "Escherichia coli", "-logMIC", 1.2),
    ("COc1ccccc1NC(=O)c1ccc(OC)c(OC)c1", "Escherichia coli", "-logMIC", 1.23),
    ("COc1ccc(C(=O)Nc2cccc(Cl)c2)cc1OC", "Escherichia coli", "-logMIC", 1.23),
    ("COc1ccc(C(=O)N(C)C)cc1OC", "Escherichia coli", "-logMIC", 1.15),
    ("COc1ccc(C(=O)Nc2ccc([N+](=O)[O-])cc2)cc1OC", "Escherichia coli", "-logMIC", 1.16),
    ("CCCCCOC(=O)c1ccc(OC)c(OC)c1", "Escherichia coli", "-logMIC", 1.1),
    ("CCCCCCOC(=O)c1ccc(OC)c(OC)c1", "Escherichia coli", "-logMIC", 1.22),
    ("CCCCCCCOC(=O)c1ccc(OC)c(OC)c1", "Escherichia coli", "-logMIC", 1.3),
    ("COc1ccc(C(=O)OC(C)(C)C)cc1OC", "Escherichia coli", "-logMIC", 1.08),
    ("COc1ccc(C(=O)Oc2ccccc2)cc1OC", "Escherichia coli", "-logMIC", 1.21),
    ("COc1ccc(C(=O)OCc2ccccc2)cc1OC", "Escherichia coli", "-logMIC", 1.18),
    ("COc1ccc(C(=O)NCCO)cc1OC", "Escherichia coli", "-logMIC", 1.08),
    ("COc1ccc(C(=O)Nc2ccccc2C)cc1OC", "Escherichia coli", "-logMIC", 1.16),
]

----------
# Tested on: Aspergillus niger
# protocol: Antifungal activity against Aspergillus niger MTCC 2425 by serial dilution method
# Format: functional
# Parameters: scale not given here
Here the recorded -logMIC is given for each entry.

# querySmiles, experimentalTarget, -logMIC
measured = [
    ("COc1ccc(C(=O)Nc2ccccc2Cl)cc1OC", "Aspergillus niger", 1.34),
    ("COc1ccc(C(=O)Nc2cccc(C)c2)cc1OC", "Aspergillus niger", 1.35),
    ("COc1ccc(C(=O)Nc2cccc(Cl)c2)cc1OC", "Aspergillus niger", 1.32),
    ("C=CCOC(=O)c1ccc(OC)c(OC)c1", "Aspergillus niger", 1.2),
    ("COc1ccc(C(=O)OC(C)C)cc1OC", "Aspergillus niger", 1.25),
    ("COc1ccc(C(=O)Nc2cccc([N+](=O)[O-])c2)cc1OC", "Aspergillus niger", 1.36),
    ("COc1ccc(C(=O)Nc2cccc(O)c2)cc1OC", "Aspergillus niger", 1.36),
]

----------
Here the recorded -logMIC is given for each entry.
# Test system: Staphylococcus aureus
# protocol: Antibacterial activity against Staphylococcus aureus MTCC 1430 by serial dilution method
# Type: functional
# Parameters: scale not given here

# compound, -logMIC
records = [
    ("COc1ccc(C(N)=O)cc1OC", 0.9),
    ("COc1ccc(C(=O)OC(C)C)cc1OC", 1.01),
    ("COc1ccc(C(=O)Nc2cccc(Cl)c2)cc1OC", 1.17),
    ("CCCCCCCOC(=O)c1ccc(OC)c(OC)c1", 1.25),
    ("CCCCOC(=O)c1ccc(OC)c(OC)c1", 1.1),
    ("CCCCCOC(=O)c1ccc(OC)c(OC)c1", 1.1),
    ("COc1ccc(C(=O)NCc2ccccc2)cc1OC", 1.15),
    ("COc1ccc(C(=O)Nc2cccc(C)c2)cc1OC", 1.2),
    ("COc1ccc(C(=O)Oc2cccc3cccnc23)cc1OC", 1.45),
    ("CCCNC(=O)c1ccc(OC)c(OC)c1", 1.08),
    ("COc1ccc(C(=O)Nc2ccc(Cl)cc2)cc1OC", 1.19),
    ("COC(=O)c1ccc(OC)c(OC)c1 [VERATRIC ACID METHYL ESTER]", 1.04),
    ("COc1ccc(C(=O)O)cc1OC [VERATRIC ACID]", 1.01),
    ("COc1ccc(C(=O)NN)cc1OC", 0.93),
    ("COc1ccc(C(=O)Oc2ccccc2)cc1OC", 1.15),
    ("COc1ccc(C(=O)Nc2ccccc2C)cc1OC", 1.2),
    ("COc1ccc(C(=O)OCCC(C)C)cc1OC", 1.1),
    ("CCNC(=O)c1ccc(OC)c(OC)c1", 0.95),
    ("COc1ccc(C(=O)OCc2ccccc2)cc1OC", 1.1),
    ("C=CCOC(=O)c1ccc(OC)c(OC)c1", 1),
    ("COc1ccc(C(=O)OC(C)(C)C)cc1OC", 1.08),
    ("COc1ccc(NC(=O)c2ccc(OC)c(OC)c2)cc1", 1.2),
    ("O=C(O)c1cn(C2CC2)c2cc(N3CCNCC3)c(F)cc2c1=O [CIPROFLOXACIN]", 3.33),
    ("COc1ccc(C(=O)Nc2ccc(C)cc2)cc1OC", 1.15),
    ("CCOC(=O)c1ccc(OC)c(OC)c1", 0.98),
    ("CCCOC(=O)c1ccc(OC)c(OC)c1", 0.98),
    ("COc1ccc(C(=O)NCCO)cc1OC", 1.04),
    ("COc1ccc(C(=O)Nc2cccc([N+](=O)[O-])c2)cc1OC", 1.22),
]
